Attribution: patent US6340689B1

This listing pairs compounds with measured MIC50.
- Test system: L. pneumophila serogroup 1
- measurement-description: microbe, parasite or virus in culture
- Assay type: cell-based, Legionella pneumophila
- condition-parameters: Legionella pneumophila
quantity-kind: MIC50 (µg/mL)

1. CC[C@H]1OC(=O)[C@H](C)[C@@H](O[C@H]2C[C@@](C)(OC)[C@@H](O)[C@H](C)O2)[C@H](C)[C@@H](O[C@@H]2O[C@H](C)C[C@H](N(C)C)[C@H]2O)[C@](C)(O)C[C@@H](C)C(=O)[C@H](C)[C@@H](O)[C@]1(C)O: 0.25
2. C[C@H]1COc2c(N3CCN(C)CC3)c(F)cc3c(=O)c(C(=O)O)cn1c23: 0.016
3. COc1c(N2C[C@@H]3CCCN[C@@H]3C2)c(F)cc2c(=O)c(C(=O)O)cn(C3CC3)c12: 0.016
4. CO/N=C1\CN(c2nc3c(cc2F)c(=O)c(C(=O)O)cn3C2CC2)CC1CN (racemic): 0.016
5. CC1COc2c(N3CCN(C)CC3)c(F)cc3c(=O)c(C(=O)O)cn1c23 (stereo not shown): 0.03
6. CC[C@H]1OC(=O)[C@H](C)[C@@H](O[C@H]2C[C@@](C)(OC)[C@@H](O)[C@H](C)O2)[C@H](C)[C@@H](O[C@@H]2O[C@H](C)C[C@H](N(C)C)[C@H]2O)[C@](C)(OC)C[C@@H](C)C(=O)[C@H](C)[C@@H](O)[C@]1(C)O: 0.06
7. CC[C@H]1OC(=O)[C@H](C)[C@@H](O[C@H]2C[C@@](C)(OC)[C@@H](O)[C@H](C)O2)[C@H](C)[C@@H](O[C@@H]2O[C@H](C)C[C@H](N(C)C)[C@H]2O)[C@](C)(O)C[C@@H](C)CN(C)[C@H](C)[C@@H](O)[C@]1(C)O: 0.06
8. Cc1c(F)c(N2CCNC(C)C2)cc2c1c(=O)c(C(=O)O)cn2C1CC1 (stereo not shown): 0.016
